Provenance of the data: BindingDB's records for doi:10.1021/acs.jmedchem.8b01719

# Experiment summary: Inhibition of HCV genotype 1b NS5B RNA dependent RNA polymerase C316N mutant infected in human HuH7 Lunet replicon cells assessed as reduction in viral replication after 48 hrs by steady-glo luciferase reporter gene assay
Readout type: log10(EC50) (log10 of the value in nM)
In our notation, the value equals log10 of EC50 in nM.

Q: log10(EC50) for CNC(=O)c1c(-c2ccc(F)cc2)oc2cc(N(c3ccc(B(O)O)c(Cl)c3)S(C)(=O)=O)c(C3CC3)cc12 ?
Ans: 0.60

Q: Same question, CNC(=O)c1c(-c2ccc(F)cc2)oc2cc(-n3nccc3-c3ccc(B(O)O)c(F)c3)c(C3CC3)cc12 this time
Ans: 0.90

Q: Same question, CNC(=O)c1c(-c2ccc(F)cc2)oc2cc(-n3ccnc3-c3ccc(B(O)O)c(F)c3)c(C3CC3)cc12 this time
Ans: 2.60

Q: Same question, CNC(=O)c1c(-c2ccc(F)cc2)oc2cc(N(c3ccc(B(O)O)c(C(F)(F)F)c3)S(C)(=O)=O)c(C3CC3)cc12 this time
Ans: 0.90

Q: Same question, CNC(=O)c1c(-c2ccc(F)cc2)oc2cc(N(Cc3ccc(B(O)O)cc3C(F)(F)F)S(C)(=O)=O)c(C3CC3)cc12 this time
Ans: 1.28

Q: Same question, CNC(=O)c1c(-c2ccc(F)cc2)oc2cc(N3C(=O)OCCC3c3ccc(B(O)O)cc3)c(C3CC3)cc12 (stereo unspecified) this time
Ans: 2.60

Q: Same question, CNC(=O)c1c(-c2ccc(F)cc2)oc2cc(N3C(=O)OC[C@H]3c3ccc(B(O)O)c(F)c3)c(C3CC3)cc12 this time
Ans: 3.20

Q: Same question, CNC(=O)c1c(-c2ccc(F)cc2)oc2cc(-c3ncoc3-c3ccc(B(O)O)c(F)c3)c(C3CC3)cc12 this time
Ans: 0.80

Q: Same question, CNC(=O)c1c(-c2ccc(F)cc2)oc2cc(N(c3cccc(B(O)O)c3)S(C)(=O)=O)c(C3CC3)cc12 this time
Ans: 1.80

Q: Same question, CNC(=O)c1c(-c2ccc(F)cc2)oc2cc(N(C3CCCc4cc(B(O)O)ccc43)S(C)(=O)=O)c(C3CC3)cc12 (stereo unspecified) this time
Ans: 2.40

Q: Same question, CNC(=O)c1c(-c2ccc(F)cc2)oc2cc(N3C(=O)CCC3c3ccc(B(O)O)cc3)c(C3CC3)cc12 (stereo unspecified) this time
Ans: 2.90

Q: Same question, CNC(=O)c1c(-c2ccc(F)cc2)oc2cc(N3C(=O)OCC3c3cccc(B(O)O)c3)c(C3CC3)cc12 (stereo unspecified) this time
Ans: 3.20

Q: Same question, CNC(=O)c1c(-c2ccc(F)cc2)oc2cc(-n3nc(C)nc3-c3ccc(B(O)O)c(F)c3)c(C3CC3)cc12 this time
Ans: 2.60

Q: Same question, CNC(=O)c1c(-c2ccc(F)cc2)oc2cc(-n3nnnc3-c3ccc(B(O)O)c(Cl)c3)c(C3CC3)cc12 this time
Ans: 1.60

Q: Same question, CNC(=O)c1c(-c2ccc(F)cc2)oc2cc(N(c3cc(Cl)c4c(c3)COB4O)S(C)(=O)=O)c(C3CC3)cc12 this time
Ans: 0.40

Q: Same question, CNC(=O)c1c(-c2ccc(F)cc2)oc2cc(-n3ncnc3-c3ccc(B(O)O)c(F)c3)c(C3CC3)cc12 this time
Ans: 0.80

Q: Same question, CNC(=O)c1c(-c2ccc(F)cc2)oc2cc(N(C(C)c3ccc4c(c3)COB4O)S(C)(=O)=O)c(C3CC3)cc12 (stereo unspecified) this time
Ans: 2.92

Q: Same question, CNC(=O)c1c(-c2ccc(F)cc2)oc2cc(N(C3CCc4c(B(O)O)cccc43)S(C)(=O)=O)c(C3CC3)cc12 (stereo unspecified) this time
Ans: 2.51

Q: Same question, CNC(=O)c1c(-c2ccc(F)cc2)oc2cc(N(C3CCc4cc(B(O)O)ccc43)S(C)(=O)=O)c(C3CC3)cc12 (stereo unspecified) this time
Ans: 2.70

Q: Same question, CNC(=O)c1c(-c2ccc(F)cc2)oc2cc(N3C(=O)NCC3c3ccc(B(O)O)cc3)c(C3CC3)cc12 (stereo unspecified) this time
Ans: 3.51

Q: Same question, CNC(=O)c1c(-c2ccc(F)cc2)oc2cc(N3C(=O)OC[C@@H]3c3ccc(B(O)O)c(F)c3)c(C3CC3)cc12 this time
Ans: 0.70

Q: Same question, CNC(=O)c1c(-c2ccc(F)cc2)oc2cc(N3C(=O)OCC3c3ccc(B(O)O)cc3)c(C3CC3)cc12 (stereo unspecified) this time
Ans: 2.30

Q: Same question, CNC(=O)c1c(-c2ccc(F)cc2)oc2cc(-c3ncnn3-c3ccc(B(O)O)c(F)c3)c(C3CC3)cc12 this time
Ans: 0.60

Q: Same question, CNC(=O)c1c(-c2ccc(F)cc2)oc2cc(N(c3ccc(B(O)O)c(F)c3)S(C)(=O)=O)c(C3CC3)cc12 this time
Ans: 0.51

Q: Same question, CNC(=O)c1c(-c2ccc(F)cc2)oc2cc(N(c3ccc(B(O)O)cc3)S(C)(=O)=O)c(C3CC3)cc12 this time
Ans: 0.80

---

Give pEC50 for every item shown.
# Experiment summary: Inhibition of HCV genotype 1a wild-type NS5B RNA dependent RNA polymerase transfected in human HuH7 Lunet replicon cells assessed as reduction in viral replication after 3 days by steady-glo luciferase reporter gene assay
Lab note — pEC50 values are minus log10 of concentrations in M.

Q: pEC50 for CNC(=O)c1c(-c2ccc(F)cc2)oc2cc(-n3ccnc3-c3ccc(B(O)O)c(F)c3)c(C3CC3)cc12 ?
Ans: 7.74

Q: Same question, CNC(=O)c1c(-c2ccc(F)cc2)oc2cc(N3C(=O)OC[C@@H]3c3cccc(F)c3)c(C3CC3)cc12 this time
Ans: 6.54

Q: Same question, CNC(=O)c1c(-c2ccc(F)cc2)oc2cc(-n3nc(C)nc3-c3ccc(B(O)O)c(F)c3)c(C3CC3)cc12 this time
Ans: 8.22

Q: Same question, CNC(=O)c1c(-c2ccc(F)cc2)oc2cc(N(C3CCCc4cc(B(O)O)ccc43)S(C)(=O)=O)c(C3CC3)cc12 (stereo not drawn) this time
Ans: 7.55

Q: Same question, CNC(=O)c1c(-c2ccc(F)cc2)oc2cc(-c3ncnn3-c3ccc(B(O)O)c(F)c3)c(C3CC3)cc12 this time
Ans: 8.92

Q: Same question, CNC(=O)c1c(-c2ccc(F)cc2)oc2cc(N(C3CCc4cc(B(O)O)ccc43)S(C)(=O)=O)c(C3CC3)cc12 (stereo not drawn) this time
Ans: 8.04

Q: Same question, CNC(=O)c1c(-c2ccc(F)cc2)oc2cc(-n3nnnc3-c3ccc(B(O)O)c(Cl)c3)c(C3CC3)cc12 this time
Ans: 8.42

Q: Same question, CNC(=O)c1c(-c2ccc(F)cc2)oc2cc(N(c3cccc(B(O)O)c3)S(C)(=O)=O)c(C3CC3)cc12 this time
Ans: 8.66

---

Give pEC50 for every item shown.
# Experiment summary: Inhibition of HCV genotype 1b wild-type NS5B RNA dependent RNA polymerase infected in human HuH7 Lunet replicon cells assessed as reduction in viral replication after 48 hrs by steady-glo luciferase reporter gene assay
Lab note — pEC50 values are minus log10 of concentrations in M.

Q: pEC50 for CNC(=O)c1c(-c2ccc(F)cc2)oc2cc(N(c3ccc(B(O)O)c(Cl)c3)S(C)(=O)=O)c(C3CC3)cc12 ?
Ans: 8.60

Q: Same question, CNC(=O)c1c(-c2ccc(F)cc2)oc2cc(N(C3CCc4c(B(O)O)cccc43)S(C)(=O)=O)c(C3CC3)cc12 (stereo unspecified) this time
Ans: 7.40

Q: Same question, CNC(=O)c1c(-c2ccc(F)cc2)oc2cc(N3C(=O)NCC3c3ccc(B(O)O)cc3)c(C3CC3)cc12 (stereo unspecified) this time
Ans: 6.60

Q: Same question, CNC(=O)c1c(-c2ccc(F)cc2)oc2cc(-n3nnnc3-c3ccc(B(O)O)c(Cl)c3)c(C3CC3)cc12 this time
Ans: 8.30

Q: Same question, CNC(=O)c1c(-c2ccc(F)cc2)oc2cc(-c3ncoc3-c3ccc(B(O)O)c(F)c3)c(C3CC3)cc12 this time
Ans: 8.40

Q: Same question, CNC(=O)c1c(-c2ccc(F)cc2)oc2cc(N(c3ccc(B(O)O)c(F)c3)S(C)(=O)=O)c(C3CC3)cc12 this time
Ans: 8.70

---

# Experiment summary: Inhibition of HCV genotype 1b wild-type NS5B RNA dependent RNA polymerase infected in human HuH7 Lunet replicon cells assessed as reduction in viral replication after 48 hrs by steady-glo luciferase reporter gene assay
pEC50: −log10 of the molar value.
Label scheme for pEC50: lower than 8 is Not fulfilled, 8 and above is Fulfilled.

Q: Quick check, pEC50 >= 8? CNC(=O)c1c(-c2ccc(F)cc2)oc2cc(N3C(=O)OC[C@@H]3c3cccc(F)c3)c(C3CC3)cc12
Ans: Not fulfilled

Q: Same question, CNC(=O)c1c(-c2ccc(F)cc2)oc2cc(N3C(=O)OC[C@@H]3c3ccc(B(O)O)c(F)c3)c(C3CC3)cc12 this time
Ans: Fulfilled

Q: Same question, CNC(=O)c1c(-c2ccc(F)cc2)oc2cc(N(C(C)c3ccc4c(c3)COB4O)S(C)(=O)=O)c(C3CC3)cc12 (stereo not drawn) this time
Ans: Not fulfilled

Q: Same question, CNC(=O)c1c(-c2ccc(F)cc2)oc2cc(N3C(=O)CCC3c3ccc(B(O)O)cc3)c(C3CC3)cc12 (stereo not drawn) this time
Ans: Not fulfilled

Q: Same question, CNC(=O)c1c(-c2ccc(F)cc2)oc2cc(-n3ccnc3-c3ccc(B(O)O)c(F)c3)c(C3CC3)cc12 this time
Ans: Not fulfilled

Q: Same question, CNC(=O)c1c(-c2ccc(F)cc2)oc2cc(N3C(=O)OCCC3c3ccc(B(O)O)cc3)c(C3CC3)cc12 (stereo not drawn) this time
Ans: Not fulfilled

Q: Same question, CNC(=O)c1c(-c2ccc(F)cc2)oc2cc(N(Cc3ccc(B(O)O)cc3C(F)(F)F)S(C)(=O)=O)c(C3CC3)cc12 this time
Ans: Fulfilled
